Collected apparent KD of MS2 coat protein values appear next to each entry.
tested on: MS2 coat protein; assay: apparent KD of MS2 coat protein; designed switch direction (-1 OFF switch, 1 ON switch): -1; higher = weaker reporter binding; conditions: input ligand: none
Response body: numeric value in nM, unit text excluded.

What the record says about AAUAAUUGUGACUUGGGUGACAUGAGGAUCACCCAUGUCACAAGCUUGUUGCUCGCCUUGUAAUUAACCCAUGUCAC [LRO Sensor-off var1-27 mod of Stov1-13-A1 by Brourd] (Eterna round: R97, puzzle: Sensor, turn-off variant 1) : apparent KD of MS2 coat protein is 20.8

What the record says about GCGGACUAGUUCGUGAGAACUGAGACAUGAGGAUCACCCAUGUAGGAUAUCGAUUCGAAACGAAUCGAGAAGGGCAUAGUCCGC [JL denovo 9] (Eterna round: R96, puzzle: Exclusion NG 3) : apparent KD of MS2 coat protein is 26.8
